targetOfAssay: APEX1 (UniProt P28352 1-317)
Sequence (P28352 whole entry): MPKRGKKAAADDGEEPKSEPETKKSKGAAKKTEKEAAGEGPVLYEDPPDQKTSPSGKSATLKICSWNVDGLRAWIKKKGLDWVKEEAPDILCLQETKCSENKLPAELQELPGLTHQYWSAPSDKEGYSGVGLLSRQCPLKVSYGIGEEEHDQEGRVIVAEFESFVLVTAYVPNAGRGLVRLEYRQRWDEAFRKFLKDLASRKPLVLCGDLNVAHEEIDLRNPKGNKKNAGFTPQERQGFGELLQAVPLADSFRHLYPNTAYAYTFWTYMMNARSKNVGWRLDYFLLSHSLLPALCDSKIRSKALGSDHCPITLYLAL
measurementNotes: EMSA; EMSA: 1 uM nucleic acid, 20 min 37 C, N buffer (100 mM NaCl, 20 mM Tris-acetate pH 8.0, 0.1 mM EDTA, 0.01% Triton X) or M buffer (40 mM KCl, 20 mM Tris-HCl pH 7.8, 8 mM MgCl2, 1 mM DTT), 13% PAGE; FP: 30 min 37 C, buffer not given
experimentalConditions: protein: recombinant; tags: His (pET28a); blunt

- binder: "Toc-Malat1 HDO, PO-ASO / PS-PO cRNA (DNA:RNA, as N1 with full PO LNA gapmer ASO) DNA: CTAGTTCACTGAATGC RNA: GCAUUCAGUGAACUAG"
  binding result: "binds"
- binder: "Toc-Malat1 HDO, PO-ASO / PO cRNA (DNA:RNA, full PO LNA gapmer ASO; full PO 2'-OMe 3+3 cRNA, 5' tocopherol) DNA: CTAGTTCACTGAATGC RNA: GCAUUCAGUGAACUAG"
  binding result: "binds"
- binder: "Toc-ApoB HDO (13-mer) (DNA:RNA, ASO full PS, LNA 2+3, 8-nt DNA gap (gap T printed as u); cRNA PS-PO, 2'-OMe 3+2, 5' tocopherol) DNA: GCATTGGTATTCA RNA: UGAAUACCAAUGC"
  binding result: "binds"
- binder: "Toc-Malat1 HDO, PO-ASO / PS cRNA (DNA:RNA, full PO LNA gapmer ASO; full PS 2'-OMe 3+3 cRNA, 5' tocopherol) DNA: CTAGTTCACTGAATGC RNA: GCAUUCAGUGAACUAG"
  binding result: "binds"
